Sourced from ChEMBL document CHEMBL4342412

- Test System: UniProtKB P30419
- Experimental Setup: probe GSNKSKPK peptide
Property Name: inhibition at 0.5 h, 500 µM (%)

{"Molecule": "COc1ccccc1-n1cc(-c2ccnc(NCCC3CCCN3C)n2)cn1 (stereo unspecified)", "Test System": "UniProtKB P30419", "Unit Abbrev": "%", "Readout Value": 59}

----------
- Test System: Glycylpeptide N-tetradecanoyltransferase 1 (Homo sapiens)
- Sequence (P30419 whole entry): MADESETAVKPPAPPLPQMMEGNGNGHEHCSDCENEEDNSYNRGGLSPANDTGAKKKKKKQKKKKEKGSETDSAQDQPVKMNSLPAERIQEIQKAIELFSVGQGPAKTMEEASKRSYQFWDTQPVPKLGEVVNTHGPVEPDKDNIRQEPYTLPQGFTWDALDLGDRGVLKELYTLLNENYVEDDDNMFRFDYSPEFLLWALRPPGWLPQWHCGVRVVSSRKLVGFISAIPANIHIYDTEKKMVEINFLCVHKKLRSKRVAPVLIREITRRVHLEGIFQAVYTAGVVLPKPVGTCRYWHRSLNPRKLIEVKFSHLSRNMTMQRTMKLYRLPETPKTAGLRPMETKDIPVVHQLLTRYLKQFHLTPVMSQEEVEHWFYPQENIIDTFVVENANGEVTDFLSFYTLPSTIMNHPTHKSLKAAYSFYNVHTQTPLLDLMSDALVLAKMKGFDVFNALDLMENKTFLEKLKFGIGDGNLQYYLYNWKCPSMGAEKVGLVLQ
pKi: −log10 of the molar value.
Property Name: pKi

{"Compound": "COc1cccc(Cc2noc(-c3ccccc3OC3CCNCC3)n2)c1", "Test System": "Glycylpeptide N-tetradecanoyltransferase 1 (Homo sapiens)", "Censoring Sign": "=", "Readout Value": 5.48}
{"Compound": "N[C@@H](CC(=O)N1C[C@H](CO)[C@@H](c2ccc(Cl)cc2)C1)Cc1ccc(Cl)cc1", "Test System": "Glycylpeptide N-tetradecanoyltransferase 1 (Homo sapiens)", "Censoring Sign": "=", "Readout Value": 5.54}
{"Compound": "COc1ccccc1-n1cc(-c2ccnc(NCCC3CCCN3C)n2)cn1 (stereo not drawn)", "Test System": "Glycylpeptide N-tetradecanoyltransferase 1 (Homo sapiens)", "Censoring Sign": "<", "Readout Value": 7.40}

----------
- Test system: human NMT1 versus Leishmania major NMT
- Assay Name: in vitro
- Experimental Setup: human (numerator) and Leishmania major (denominator)
- Description: Selectivity index, ratio of Ki for inhibition of N-terminal TEV cleavage site-fused His6 tagged human NMT1 (115 to 496 residues) to Ki for inhibition of N-terminal TEV cleavage site-fused His6 tagged Leishmania major NMT (11 to 421 residues)

{"Chemical String": "COc1cccc(Cc2noc(-c3ccccc3OC3CCNCC3)n2)c1", "selectivity ratio": 47.8}
{"Chemical String": "N[C@@H](CC(=O)N1C[C@H](CO)[C@@H](c2ccc(Cl)cc2)C1)Cc1ccc(Cl)cc1", "selectivity ratio": 10.5}
